Origin of measurements: paper PMC4336329

Catalogue of molecules with associated hERG current change (%, negative = inhibition) at 1uM
target: human ether-à-go-go-related gene (hERG) potassium channel (human, UniProt Q12809); experiment: primary screen, population patch clamp on CHO cells stably expressing hERG; higher = less effect of the substance
Sequence (Q12809 whole entry, looked up): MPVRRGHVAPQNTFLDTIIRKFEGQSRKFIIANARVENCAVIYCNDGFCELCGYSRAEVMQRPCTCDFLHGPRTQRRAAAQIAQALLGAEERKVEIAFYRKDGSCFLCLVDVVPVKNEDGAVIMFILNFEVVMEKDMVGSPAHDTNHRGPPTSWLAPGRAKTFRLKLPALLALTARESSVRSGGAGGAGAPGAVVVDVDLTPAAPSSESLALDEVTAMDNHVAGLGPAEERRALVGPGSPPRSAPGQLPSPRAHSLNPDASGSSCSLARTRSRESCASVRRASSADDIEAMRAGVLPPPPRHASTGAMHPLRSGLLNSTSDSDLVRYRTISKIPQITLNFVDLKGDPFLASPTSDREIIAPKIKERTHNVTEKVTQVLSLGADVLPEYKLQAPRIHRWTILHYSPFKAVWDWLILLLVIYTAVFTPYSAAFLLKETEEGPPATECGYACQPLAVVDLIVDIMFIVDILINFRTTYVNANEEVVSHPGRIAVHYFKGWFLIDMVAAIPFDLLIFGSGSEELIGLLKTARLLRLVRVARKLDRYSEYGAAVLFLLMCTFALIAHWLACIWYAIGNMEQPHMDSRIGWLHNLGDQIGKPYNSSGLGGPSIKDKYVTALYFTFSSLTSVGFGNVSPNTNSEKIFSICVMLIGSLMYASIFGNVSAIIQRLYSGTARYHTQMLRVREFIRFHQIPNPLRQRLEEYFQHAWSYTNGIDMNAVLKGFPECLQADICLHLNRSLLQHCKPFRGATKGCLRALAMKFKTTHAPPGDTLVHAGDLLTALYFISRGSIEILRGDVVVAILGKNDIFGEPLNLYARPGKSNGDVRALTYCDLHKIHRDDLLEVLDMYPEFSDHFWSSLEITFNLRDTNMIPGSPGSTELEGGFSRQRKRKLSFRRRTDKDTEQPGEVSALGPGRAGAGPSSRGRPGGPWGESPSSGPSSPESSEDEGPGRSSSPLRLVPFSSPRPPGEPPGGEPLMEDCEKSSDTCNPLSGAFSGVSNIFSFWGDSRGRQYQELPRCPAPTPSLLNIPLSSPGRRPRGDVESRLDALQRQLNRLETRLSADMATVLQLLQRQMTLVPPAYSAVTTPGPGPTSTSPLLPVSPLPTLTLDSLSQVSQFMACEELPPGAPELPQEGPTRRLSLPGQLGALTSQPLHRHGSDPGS
Hit rate of the full screen: of about 310,000 compounds, about 2,200 (0.71%) showed an effect of 50% or more. The effect is printed as a negative number. What follows is part of a selection rich in strong results, with near analogues and random picks from the rest.
Attribute Measured: hERG current change (%, negative = inhibition) at 1uM

INSERT INTO measurements (molecule, assayed_target, result) VALUES
  ('c1ccc(SCCOCCN2CCc3ccccc3C2)cc1', 'human ether-à-go-go-related gene (hERG) potassium channel (human, UniProt Q12809)', '-62.7%'),
  ('COc1ccc(NC(=S)N(CCCN2CCN(C)CC2)Cc2cccs2)cc1', 'human ether-à-go-go-related gene (hERG) potassium channel (human, UniProt Q12809)', '-14%'),
  ('Cc1ccc(SCCOCCN2CCc3ccccc3C2)cc1', 'human ether-à-go-go-related gene (hERG) potassium channel (human, UniProt Q12809)', '-6.57%'),
  ('CCOC(=O)C1CCCN(CCC(=O)Nc2c(C(=O)OC)[nH]c3cc(OC)ccc23)C1 (stereo not shown)', 'human ether-à-go-go-related gene (hERG) potassium channel (human, UniProt Q12809)', '-38%'),
  ('COc1ccc(NC(=S)N(CCCN2CCCC(C)C2)Cc2cccs2)cc1 (stereo not shown)', 'human ether-à-go-go-related gene (hERG) potassium channel (human, UniProt Q12809)', '-62.4%'),
  ('COc1ccc(NC(=S)N(CCCN2CCCC2)Cc2cccs2)cc1', 'human ether-à-go-go-related gene (hERG) potassium channel (human, UniProt Q12809)', '-7.06%'),
  ('CN(C)S(=O)(=O)c1ccc(C(=O)NCC(C)(C)CN=C2NS(=O)(=O)c3ccccc32)cc1', 'human ether-à-go-go-related gene (hERG) potassium channel (human, UniProt Q12809)', '1.35%'),
  ('Clc1ccc(SCCOCCN2CCCCCC2)cc1.O=C(O)C(=O)O', 'human ether-à-go-go-related gene (hERG) potassium channel (human, UniProt Q12809)', '-20.6%'),
  ('CCCCOC(=O)c1ccc(OC(=O)c2cccnc2)cc1', 'human ether-à-go-go-related gene (hERG) potassium channel (human, UniProt Q12809)', '5.73%'),
  ('COc1ccc(C(=O)Oc2cc(C)c(CN3CCOCC3)cc2C)cc1OC', 'human ether-à-go-go-related gene (hERG) potassium channel (human, UniProt Q12809)', '-1.52%');
